Assay: Clearance in rat plasma at 2 mg/kg, iv
Format: ADME, organism-based
Parameters: dose 2 mg/kg, route intravenous
Recorded measurements of clearance, one per entry

test-smiles	clearance (mL/min/kg)
CNCc1ccc(OC)c([C@@]2(N3CCC[C@H]3c3ncco3)C(=O)N(S(=O)(=O)c3ccc(OC)cc3)c3ccc(Cl)cc32)c1	50
COc1ccc(S(=O)(=O)N2C(=O)[C@@](c3ccccc3OC)(N3C[C@H](O)C[C@H]3C(=O)N(C)C)c3cc(Cl)ccc32)c(OC)c1	86.7

====

Target: Vasopressin V1a receptor (Homo sapiens)
Sequence (P37288 whole entry): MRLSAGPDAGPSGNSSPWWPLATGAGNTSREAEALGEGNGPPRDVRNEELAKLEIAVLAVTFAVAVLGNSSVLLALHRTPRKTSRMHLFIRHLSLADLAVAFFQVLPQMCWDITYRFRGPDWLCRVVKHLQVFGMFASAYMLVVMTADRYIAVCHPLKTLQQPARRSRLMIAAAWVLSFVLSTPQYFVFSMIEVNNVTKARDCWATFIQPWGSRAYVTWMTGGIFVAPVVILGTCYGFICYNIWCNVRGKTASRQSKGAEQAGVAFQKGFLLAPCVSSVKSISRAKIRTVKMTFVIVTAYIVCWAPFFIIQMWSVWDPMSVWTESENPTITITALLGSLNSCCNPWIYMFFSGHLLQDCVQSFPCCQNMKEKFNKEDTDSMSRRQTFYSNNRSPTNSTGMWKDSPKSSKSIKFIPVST
pKi: −log10 of the molar value.

test-smiles	tested-on	inequality-symbol	pKi
COc1ccc(S(=O)(=O)N2C(=O)[C@@](c3ccc(CN4CCCC4)cc3OC)(N3CCC[C@H]3C(=O)N(C)C)c3cc(Cl)ccc32)c(OC)c1	Vasopressin V1a receptor (Homo sapiens)	<	6.00
CNCc1ccc(OC)c([C@@]2(N3CCC[C@H]3c3ncco3)C(=O)N(S(=O)(=O)c3ccc(OC)cc3)c3ccc(Cl)cc32)c1	Vasopressin V1a receptor (Homo sapiens)	=	6.61
COc1ccc(S(=O)(=O)N2C(=O)[C@@](c3cc(CN4CCN(C)CC4)ccc3OC)(N3CCC[C@H]3c3ncco3)c3cc(Cl)ccc32)cc1	Vasopressin V1a receptor (Homo sapiens)	=	6.64
COc1ccc(S(=O)(=O)N2C(=O)[C@@](c3cccnc3OC)(N3CCC[C@H]3C(=O)N(C)C)c3cc(Cl)ccc32)c(OC)c1	Vasopressin V1a receptor (Homo sapiens)	=	6.66
COc1ccc(S(=O)(=O)N2C(=O)[C@@](c3nccnc3OC)(N3C[C@H](O)C[C@H]3C(=O)N(C)C)c3cc(Cl)ccc32)c(OC)c1	Vasopressin V1a receptor (Homo sapiens)	=	6.30
COc1ccc(S(=O)(=O)N2C(=O)[C@@](c3cc(CN4CCN(C)CC4)ccc3OC)(N3CCC[C@H]3C(=O)N(C)C)c3cc(Cl)ccc32)cc1	Vasopressin V1a receptor (Homo sapiens)	=	7.89
COc1ccc(S(=O)(=O)N2C(=O)[C@@](c3cc(CN(C)C)ccc3OC)(N3CCC[C@H]3c3ncco3)c3cc(Cl)ccc32)cc1	Vasopressin V1a receptor (Homo sapiens)	=	6.54
